- assay-info: NCI Yeast Anticancer Drug Screen. Data for the cln2 rad14 strain (AID 165);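 also: 0% = growth equal to vehicle treated cultures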
- cond: S. cerevisiae cln2 rad14 strain, at 50.0 µM, stronger effect = higher value
This is part of a sample that, as a whole, favours compounds with a hit. Of some 79,000 tested, about 15% had one in any assay.
observable: growth inhibition (%)
Kindly answer with a numeric value in %, unit omitted.

Past entries and their recorded results:
compound: CCOC(=O)Nc1ccc(F)c(C(F)(F)F)c1
measurement-unit: %
reading: -52.3

compound: O=C(O)C1CC=CCC1c1c2ccc(=O)cc-2oc2cc(O)ccc12 (stereo not drawn)
measurement-unit: %
reading: -5.25

compound: NC1=C(O)C(=O)C(c2ccc(C3OC(N)=C(O)C3=O)cc2)O1 (stereo not drawn)
measurement-unit: %
reading: -0.3

Query: Which growth inhibition is reported for this compound? Nc1nc2nsnc2nc1N
Result: -57.9

The values you see were collected from PubChem BioAssay (NCI).
